Sourced from ChEMBL document CHEMBL1136629

Target: Peroxisome proliferator-activated receptor alpha (Homo sapiens)
Sequence (Q07869 whole entry): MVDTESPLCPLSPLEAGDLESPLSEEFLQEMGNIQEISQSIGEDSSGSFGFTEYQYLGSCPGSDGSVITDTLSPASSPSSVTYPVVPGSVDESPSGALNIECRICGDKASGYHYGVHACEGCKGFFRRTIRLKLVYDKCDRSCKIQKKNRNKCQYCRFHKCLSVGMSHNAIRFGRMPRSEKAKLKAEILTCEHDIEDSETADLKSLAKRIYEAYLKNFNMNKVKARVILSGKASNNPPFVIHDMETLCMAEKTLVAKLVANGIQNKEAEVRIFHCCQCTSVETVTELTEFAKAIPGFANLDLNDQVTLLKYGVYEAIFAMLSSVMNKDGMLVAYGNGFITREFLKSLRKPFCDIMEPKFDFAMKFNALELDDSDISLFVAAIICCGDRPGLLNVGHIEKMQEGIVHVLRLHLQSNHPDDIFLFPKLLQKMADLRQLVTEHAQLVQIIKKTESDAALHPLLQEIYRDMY
Assay: In vitro binding affinity towards human peroxisome proliferator activated receptor alpha (PPAR alpha)
Lab note: anything with Ki below 10 nM is marked T; values at 10 nM or higher are marked F.

Task item: Would you kindly verify if Ki of `CCCc1c(OCCCSc2ccc(CC(=O)O)cc2Cl)ccc2c(-c3ccccc3)noc12` is strictly less than 10 nM?
Reply: F

Task item: Would you kindly verify if Ki of `CCCc1c(OCCCCOc2cccc(C(C)(C)C(=O)O)c2)ccc2c(-c3ccccc3)noc12` is strictly less than 10 nM?
Reply: F

Task item: Would you kindly verify if Ki of `CCCc1c(OCCCCOc2ccc(CCC(=O)O)cc2)ccc2c(-c3ccccc3)noc12` is strictly less than 10 nM?
Reply: T

Task item: Would you kindly verify if Ki of `CCCc1c(OCCCCOc2ccc(CC(C)(C)C(=O)O)cc2)ccc2c(-c3ccccc3)noc12` is strictly less than 10 nM?
Reply: F

Task item: Would you kindly verify if Ki of `CCCc1c(OCCCCOc2ccc(C(C)(C)CC(=O)O)cc2)ccc2c(-c3ccccc3)noc12` is strictly less than 10 nM?
Reply: F

Task item: Would you kindly verify if Ki of `CCCc1c(OCCCCOc2cccc(CCC(=O)O)c2)ccc2c(-c3ccccc3)noc12` is strictly less than 10 nM?
Reply: F

Task item: Would you kindly verify if Ki of CCCc1c(OCCCOc2ccc(OC(C)C(=O)O)cc2)ccc2c(-c3ccccc3)noc12 (configuration not stated) is strictly less than 10 nM?
Reply: T

Task item: Would you kindly verify if Ki of `CCCc1c(OCCCCOc2ccccc2CC(=O)O)ccc2c(-c3ccccc3)noc12` is strictly less than 10 nM?
Reply: F

Task item: Would you kindly verify if Ki of `CCCc1c(OCCCCOc2ccc(C(C)(C)C(=O)O)cc2)ccc2c(-c3ccccc3)noc12` is strictly less than 10 nM?
Reply: F

Task item: Would you kindly verify if Ki of `CCCc1c(OCCCOc2ccc(CC(=O)O)cc2)ccc2c(-c3ccccc3)noc12` is strictly less than 10 nM?
Reply: T

Task item: Would you kindly verify if Ki of CCCc1c(OCCCCOc2ccc(OC(C)C(=O)O)cc2)ccc2c(-c3ccccc3)noc12 (configuration not stated) is strictly less than 10 nM?
Reply: F

Task item: Would you kindly verify if Ki of `CCCc1c(OCCCOc2ccccc2CC(=O)O)ccc2c(-c3ccccc3)noc12` is strictly less than 10 nM?
Reply: F

Task item: Would you kindly verify if Ki of `CCCc1c(OCCCCOc2cccc(C(=O)O)c2)ccc2c(-c3ccccc3)noc12` is strictly less than 10 nM?
Reply: T

Task item: Would you kindly verify if Ki of `CCCc1c(OCCCCOc2cccc(OC(C)(C)C(=O)O)c2)ccc2c(-c3ccccc3)noc12` is strictly less than 10 nM?
Reply: F

Task item: Would you kindly verify if Ki of `CCCc1c(OCCCCOc2ccc(C(=O)O)cc2)ccc2c(-c3ccccc3)noc12` is strictly less than 10 nM?
Reply: F

Task item: Would you kindly verify if Ki of `CCCc1c(OCCCOc2ccc(CCCC(=O)O)cc2)ccc2c(-c3ccccc3)noc12` is strictly less than 10 nM?
Reply: F

Task item: Would you kindly verify if Ki of `CCCc1c(OCCOc2ccc(CCCC(=O)O)cc2)ccc2c(-c3ccccc3)noc12` is strictly less than 10 nM?
Reply: F

Task item: Would you kindly verify if Ki of `CCCc1c(OCCCCOc2ccc(/C=C/C(=O)O)cc2)ccc2c(-c3ccccc3)noc12` is strictly less than 10 nM?
Reply: F

Task item: Would you kindly verify if Ki of `CCCc1c(OCCCCOc2cccc(OCC(=O)O)c2)ccc2c(-c3ccccc3)noc12` is strictly less than 10 nM?
Reply: F

Task item: Would you kindly verify if Ki of `CCCc1c(OCCCCOc2ccc(CC(=O)O)cc2)ccc2c(-c3ccccc3)noc12` is strictly less than 10 nM?
Reply: T

Task item: Would you kindly verify if Ki of `CCCc1c(OCCCOc2ccc(CCC(=O)O)cc2)ccc2c(-c3ccccc3)noc12` is strictly less than 10 nM?
Reply: T

Task item: Would you kindly verify if Ki of `CCCc1c(OCCCOc2ccc(OCC(=O)O)cc2)ccc2c(-c3ccccc3)noc12` is strictly less than 10 nM?
Reply: T

Task item: Would you kindly verify if Ki of `CCCc1c(OCCCOc2cccc(CC(=O)O)c2)ccc2c(-c3ccccc3)noc12` is strictly less than 10 nM?
Reply: F

Task item: Would you kindly verify if Ki of `CCCc1c(OCCCCOc2cccc(CC(=O)O)c2)ccc2c(-c3ccccc3)noc12` is strictly less than 10 nM?
Reply: T

Task item: Would you kindly verify if Ki of `CCCc1c(OCCCOc2cccc(CCC(=O)O)c2)ccc2c(-c3ccccc3)noc12` is strictly less than 10 nM?
Reply: F

Task item: Would you kindly verify if Ki of `CCCc1c(OCCCOc2ccccc2CCC(=O)O)ccc2c(-c3ccccc3)noc12` is strictly less than 10 nM?
Reply: F

Task item: Would you kindly verify if Ki of `CCCc1c(OCCCOc2ccc(/C=C/C(=O)O)cc2)ccc2c(-c3ccccc3)noc12` is strictly less than 10 nM?
Reply: F
